target: KRasG12C (M1-K169, biotinylated on the N-terminus) (Homo sapiens (Human), UniProt P01116, G12C); experiment: Covalent competition assay: scintillation proximity assay (SPA) quantifying covalent modification of KRASG12C; conditions: competition with radiolabeled covalent probe (Compound B/Compound A), 2 hours incubation, 10 nM KRasG12C
pIC50: −log10 of the molar value.
If the reported pIC50 equals or exceeds 7, assign MET. If not, assign NOT MET.

Assess whether reported pIC50 for C=CC(=O)N1CC2(CC(n3nc(N4CC[C@@H](N(C)C(C)=O)CC4(C)C)c(-c4c(Cl)c(C)cc5[nH]ncc45)c3C)C2)C1 (single isomer, unassigned) [Example 69b] sits at 7 or higher.
MET

Would you kindly repeat that for C=CC(=O)N1CC2(CC(n3nc(N4CCC(CN5CCOCC5)CC4(C)COC)c(-c4c(Cl)c(Cl)cc5[nH]ncc45)c3C)C2)C1 (single isomer, unassigned) [Example 221b] ?
NOT MET

Would you kindly repeat that for C=CC(=O)N1CC2(CC(n3nc(N4CCN(C5CC6(COC6)C5)CC45CCC5)c(-c4c(Cl)c(C)cc5[nH]ncc45)c3C)C2)C1 (single isomer, unassigned) [Example 135b] ?
MET

Would you kindly repeat that for C=CC(=O)N1CC2(CC(n3nc(N4CCN(C5CCOCC5)C[C@]4(C)CCOC)c(-c4c(Cl)c(C)cc5[nH]ncc45)c3C)C2)C1 (single isomer, unassigned) [Example 87b] ?
NOT MET

Would you kindly repeat that for C=CC(=O)N1CC2(CC(n3nc(N4CC[C@@H](CN5CC6(CCN(S(C)(=O)=O)C6)C5)CC4(C)C)c(-c4c(Cl)c(Cl)cc5[nH]ncc45)c3C)C2)C1 (single isomer, unassigned) [Example 297a] ?
NOT MET

Would you kindly repeat that for C=CC(=O)N1CC2(CC(n3nc(N4CCC(O)(CN5CCOCC5)CC4(C)C)c(-c4c(Cl)c(Cl)cc5[nH]ncc45)c3C)C2)C1 (single isomer, unassigned) [Example 237a] ?
NOT MET

Would you kindly repeat that for C=CC(=O)N1CC2(CC(n3nc(N4CCC(N(C)C5COC5)CC4(C)C)c(-c4c(Cl)c(Cl)cc5[nH]ncc45)c3C)C2)C1 (single isomer, unassigned) [Example 50a] ?
NOT MET

Would you kindly repeat that for C=CC(=O)N1CC2(CC(n3nc(N4CCN(C5CCOCC5)C[C@]4(C)COC)c(-c4c(Cl)c(C)cc5[nH]nc(N)c45)c3C)C2)C1 (single isomer, unassigned) [Example 90b] ?
NOT MET

###

target: KRasG12C (M1-K169, biotinylated on the N-terminus) (Homo sapiens (Human), UniProt P01116, G12C); assay: Covalent competition assay: scintillation proximity assay (SPA) quantifying covalent modification of KRASG12C; settings: competition with radiolabeled covalent probe (Compound B/Compound A), 2 hours incubation, 10 nM KRasG12C
pIC50: −log10 of the molar value.
If the reported pIC50 equals or exceeds 6, assign Condition met. If not, assign Condition not met.

Assess whether reported pIC50 for C=CC(=O)N1CC2(CC(n3nc(N4CCN(C(=O)C5CC5)CC4(C)C)c(-c4c(Cl)c(C)cc5[nH]ncc45)c3C)C2)C1 (single isomer, unassigned) [Example 127a] sits at 6 or higher.
Condition not met

Would you kindly repeat that for C=CC(=O)N1CC2(CC(n3nc(N4CCC(N5CC6COCC(C5)O6)CC4(C)C)c(-c4c(Cl)c(C)cc5[nH]ncc45)c3C)C2)C1 (single isomer, unassigned) [Example 119a] ?
Condition not met

Would you kindly repeat that for C=CC(=O)N1CC2(CC(n3nc(N4CC[C@@H](CN5CCN(C6COC6)C[C@@H]5COC)CC4(C)C)c(-c4c(Cl)c(Cl)cc5[nH]ncc45)c3C)C2)C1 (single isomer, unassigned) [Example 320a] ?
Condition not met

Would you kindly repeat that for C=CC(=O)N1CC2(CC(n3nc(N4CCN(C5CCOCC5)C[C@@]4(C)C(F)F)c(-c4c(Cl)c(C)cc5[nH]ncc45)c3C)C2)C1 (single isomer, unassigned) [Example 146a] ?
Condition not met

Would you kindly repeat that for C=CC(=O)N1CC2(CC(n3nc(N4CCn5ccnc5C4(C)C)c(-c4c(Cl)c(C)cc5[nH]ncc45)c3C)C2)C1 (single isomer, unassigned) [Example 23b] ?
Condition met

Would you kindly repeat that for C=CC(=O)N1CC2(CC(n3nc(N4[C@@H](C)CN(C(C)=O)C[C@@H]4C)c(-c4c(Cl)c(C)cc5[nH]ncc45)c3C)C2)C1 (single isomer, unassigned) [Example 56b] ?
Condition met

Would you kindly repeat that for C=CC(=O)N1CC2(CC(n3nc(N4CC[C@@H](CN5C[C@H](O)C[C@H]5COC)CC4(C)C)c(-c4c(Cl)c(Cl)cc5[nH]ncc45)c3C)C2)C1 (single isomer, unassigned) [Example 286b] ?
Condition met

Would you kindly repeat that for C=CC(=O)N1CC2(CC(n3nc(N4CCN(CC(C)(C)O)C[C@@]4(C)CC)c(-c4c(Cl)c(C)cc5[nH]ncc45)c3C)C2)C1 (single isomer, unassigned) [Example 164a] ?
Condition not met

Would you kindly repeat that for C/C=C/C(=O)N1CC2(CC(n3nc(N4CCN(C5COC5)CC45CCC5)c(-c4c(Cl)c(C)cc5[nH]ncc45)c3C)C2)C1 (single isomer, unassigned) [Example 138a] ?
Condition not met

Would you kindly repeat that for C=CC(=O)N1CC2(CC(n3nc(N4CC[C@@H](CN5CCOCC56COC6)CC4(C)C)c(-c4c(C)c(Cl)cc5[nH]ncc45)c3C)C2)C1 (single isomer, unassigned) [Example 302b] ?
Condition met

Would you kindly repeat that for C=CC(=O)N1CC2(CC(n3nc(N4CC[C@@H](CN5CCO[C@@H](C(N)=O)C5)CC4(C)C)c(-c4c(Cl)c(Cl)cc5[nH]ncc45)c3C)C2)C1 (single isomer, unassigned) [Example 271b] ?
Condition met

Would you kindly repeat that for C=CC(=O)N1CC2(CC(n3nc(N4CC[C@@H](CN5CC6(CCCN6C6COC6)C5)CC4(C)C)c(-c4c(Cl)c(Cl)cc5[nH]ncc45)c3C)C2)C1 (single isomer, unassigned) [Example 272a] ?
Condition not met

Would you kindly repeat that for C=CC(=O)N1CC2(CC(n3nc(N4CCN(C(C)=O)CC4)c(-c4c(Cl)ccc5[nH]ncc45)c3C)C2)C1C (single isomer, unassigned) [Example 195b] ?
Condition not met

Would you kindly repeat that for C=CC(=O)N1CC2(CC(n3nc(N4CCn5ccnc5C4(C)C)c(-c4c(Cl)c(C)cc5[nH]ncc45)c3C)C2)C1 (single isomer, unassigned) [Example 23a] ?
Condition not met

Would you kindly repeat that for C=CC(=O)N1CC2(CC(n3nc(N4CCN(C(C)=O)CC4(C)C)c(-c4c(Cl)c(C)cc5[nH]ncc45)c3C)C2)C1 (single isomer, unassigned) [Example 18b] ?
Condition met

Would you kindly repeat that for C=CC(=O)N1CC2(CC(n3nc(N4CCN(CC(C)(C)O)C[C@@]4(C)CC)c(-c4c(Cl)c(C)cc5[nH]ncc45)c3C)C2)C1 (single isomer, unassigned) [Example 164b] ?
Condition met

Would you kindly repeat that for C=CC(=O)N1CC2(CC(n3nc(N4CCC(CN5CCN(C)C(=O)C5)CC4(C)C)c(-c4c(Cl)c(Cl)cc5[nH]ncc45)c3C)C2)C1 (single isomer, unassigned) [Example 239b] ?
Condition met

Would you kindly repeat that for C=CC(=O)N1CC2(CC(n3nc(N4CCC(N5C[C@H]6C[C@@H]5CN6S(C)(=O)=O)CC4(C)C)c(-c4c(Cl)c(Cl)cc5[nH]ncc45)c3C)C2)C1 (single isomer, unassigned) [Example 212a] ?
Condition met

Would you kindly repeat that for C=CC(=O)N1CC2(CC(n3nc(N4CCC(N5CC(OC)C5)CC4(C)C)c(-c4c(Cl)c(Cl)cc5[nH]ncc45)c3C)C2)C1 (single isomer, unassigned) [Example 209b] ?
Condition met

Would you kindly repeat that for C=CC(=O)N1CC2(CC(n3nc(N4CCC(C)(O)CC4(C)C)c(-c4c(Cl)c(C)cc5[nH]ncc45)c3C)C2)C1 (single isomer, unassigned) [Example 27a] ?
Condition not met

###

molecular target: KRasG12C (M1-K169, biotinylated on the N-terminus) (Homo sapiens (Human), UniProt P01116, G12C); test: Covalent competition assay: scintillation proximity assay (SPA) quantifying covalent modification of KRASG12C; format: binding; conditions: competition with radiolabeled covalent probe (Compound B/Compound A), 2 hours incubation, 10 nM KRasG12C
readout-kind: IC50 (nM)
Unit nM implied. Number only.

Please give the measured IC50 for this molecule: C=CC(=O)N1CC2(CC(n3nc(N4CC[C@@H](CN5CC6C5CCN6C5COC5)CC4(C)C)c(-c4c(Cl)c(Cl)cc5[nH]ncc45)c3C)C2)C1 (single isomer, unassigned) [Example 277a]
4500

Would you kindly repeat that for C=CC(=O)N1CC2(CC(n3nc(N4CCC5C(CC(=O)N5C)C4)c(-c4c(Cl)c(C)cc5[nH]ncc45)c3C)C2)C1 (single isomer, unassigned) [Example 39a] ?
42100

Would you kindly repeat that for C=CC(=O)N1CC2(CC(n3nc(N4CCN(C(C)(C)CO)CC45CCC5)c(-c4c(Cl)c(C)cc5[nH]ncc45)c3C)C2)C1 (single isomer, unassigned) [Example 190b] ?
111

Would you kindly repeat that for C=CC(=O)N1CC2(CC(n3nc(N4CCCCC45CN(C(C)=O)C5)c(-c4c(Cl)c(C)cc5[nH]ncc45)c3C)C2)C1 (single isomer, unassigned) [Example 66b] ?
2200

Would you kindly repeat that for C=CC(=O)N1CC2(CC(n3nc(N4CCC(n5ccnc5)CC4(C)C)c(-c4c(Cl)c(C)cc5[nH]ncc45)c3C)C2)C1 (single isomer, unassigned) [Example 44b] ?
20

Would you kindly repeat that for C=CC(=O)N1CC2(CC(n3nc(N4CCC(CN5CCS(=O)(=O)CC5)CC4(C)C)c(-c4c(Cl)c(Cl)cc5[nH]ncc45)c3C)C2)C1 (single isomer, unassigned) [Example 236b] ?
2500

Would you kindly repeat that for C=CC(=O)N1CC2(CC(n3nc(N4CCC5(CC4)CN(C(C)=O)CCO5)c(-c4c(Cl)c(C)cc5[nH]ncc45)c3C)C2)C1 (single isomer, unassigned) [Example 26b] ?
110

Cited source: patent US20240317721A1
